Overview of reported cytotoxicity at 70.5 h across a group of compounds:
# EXPERIMENT SUMMARY: Human HepG2 cell viability assay in 384 well format
# Type: toxicity, cell-based
# Parameters: dose 125 nL, time 70.5 hour; concentration not given beside the values
# CONDITION DESCRIPTION: HepG2 cells, read-out: Inhibition
Numbers only here, please. The scale is %.

Answer with the recorded cytotoxicity at 70.5 h for the compound listed here: Cc1nn(C)c(N(C)C)c1CNC(C)Cc1c(F)cccc1F (stereo unspecified)
-16.6

Others:
Answer with the recorded cytotoxicity at 70.5 h for the compound listed here: `CC(=O)N[C@@H]1CN(S(=O)(=O)c2ccc(Cl)cc2)C[C@H]1O`
-7.41

Answer with the recorded cytotoxicity at 70.5 h for the compound listed here: `CC(C)[C@H](N)C(=O)N1CCSc2ccccc2C1`
-3.37

Answer with the recorded cytotoxicity at 70.5 h for the compound listed here: `NC(=O)CN(CC(N)=O)Cc1cccc(Oc2ccccc2)c1`
7.82

Answer with the recorded cytotoxicity at 70.5 h for the compound listed here: `CCN(CC)c1ccc(C(=O)N(C)Cc2c(C)noc2C)cn1`
-3.66

Answer with the recorded cytotoxicity at 70.5 h for the compound listed here: `COCCOCC(=O)Nc1ccc(C)cc1F`
-7.66

Answer with the recorded cytotoxicity at 70.5 h for the compound listed here: CN(CCC(=O)N1CCCC(Cc2cccnc2)C1)Cc1cccnc1 (stereo unspecified)
-6.27

Answer with the recorded cytotoxicity at 70.5 h for the compound listed here: `O=C(Nc1cnc(N2CCOCC2)nc1)c1ccc(C(F)(F)F)cc1`
6.8

Answer with the recorded cytotoxicity at 70.5 h for the compound listed here: CN(Cc1cscn1)C(=O)C(c1ccccc1)N1CCSCC1 (stereo unspecified)
21.5

Answer with the recorded cytotoxicity at 70.5 h for the compound listed here: Cc1nc(CN2C(=O)CC[C@@H]3[C@H]2CCN3C2CCOC2)cs1 (stereo partly specified)
1.29

Answer with the recorded cytotoxicity at 70.5 h for the compound listed here: CC(=O)NCCC1CCCCN1C(=O)c1cccc(CCC(C)(C)O)c1 (stereo unspecified)
-6.03

###

# EXPERIMENT SUMMARY: Human HepG2 cell viability assay in 384 well format
# Type: toxicity, cell-based
# Parameters: dose 125 nL, time 70.5 hour; concentration not given beside the values
# CONDITION DESCRIPTION: HepG2 cells, read-out: Inhibition
RECORDED ENDPOINT: cytotoxicity at 70.5 h

Here are 6 compounds together with their reported answers.
Answer with the recorded cytotoxicity at 70.5 h for the compound listed here: `Cn1cc(CN2CCC(c3ncc(Cl)cc3S(C)(=O)=O)CC2)cn1`
-6.32%

Answer with the recorded cytotoxicity at 70.5 h for the compound listed here: `COc1ccc(C(=O)N2CCC(Oc3ccccc3C)(C(=O)O)CC2)o1`
-3.87%

Answer with the recorded cytotoxicity at 70.5 h for the compound listed here: Cn1ccnc1CN1CCN(CC(O)c2ccccc2)CC1 (configuration not stated)
-12.2%

Answer with the recorded cytotoxicity at 70.5 h for the compound listed here: O=C1NCc2ccccc2CC12CCCN(Cc1ccsc1)C2 (configuration not stated)
2.74%

Answer with the recorded cytotoxicity at 70.5 h for the compound listed here: `O=C(c1ccsc1)N1C[C@@H]2OCCN(CCN3CCCC3)[C@@H]2C1`
16.6%

Answer with the recorded cytotoxicity at 70.5 h for the compound listed here: `Cc1cc(Br)cnc1NCCN1CCC(N(C)C)CC1`
-4.2%

Others:
Answer with the recorded cytotoxicity at 70.5 h for the compound listed here: CC(C)Nc1cccc(CC2CCN(C)C2)n1 (configuration not stated)
-5.89%

Answer with the recorded cytotoxicity at 70.5 h for the compound listed here: `CNC(=O)[C@@H](c1ccccc1)N1CCC[C@H]1C(=O)NCc1cccnc1`
-2.18%

Answer with the recorded cytotoxicity at 70.5 h for the compound listed here: Cc1cc(C)c2c(OCC(=O)NCC(O)C(F)(F)F)nn(C)c2n1 (configuration not stated)
-15.2%

###

# EXPERIMENT SUMMARY: Human HepG2 cell viability assay in 384 well format
# Assay type: toxicity, cell-based
# Set-up: dose 125 nL, time 70.5 hour; concentration not given beside the values
# CONDITION DESCRIPTION: HepG2 cells, read-out: Inhibition
Overview of reported cytotoxicity at 70.5 h across a group of molecules:
Numbers only here, please. The scale is %.

Answer with the recorded cytotoxicity at 70.5 h for the molecule listed here: `CN(Cc1ccc2nsnc2c1)C(=O)CCc1cc2n(n1)CCCNC2`
-8.3

Others:
Answer with the recorded cytotoxicity at 70.5 h for the molecule listed here: `O=c1nc(SCc2cccnc2)c2c(n1CCO)CCCC2`
-11

Answer with the recorded cytotoxicity at 70.5 h for the molecule listed here: `O=S1(=O)NCC2(CCN(c3ncc(F)cn3)CC2)COc2ccccc21`
-0.496

Answer with the recorded cytotoxicity at 70.5 h for the molecule listed here: Cc1nn(C)c(C)c1C1CCCN1C(=O)c1ccnc(N(C)C)c1 (centres undefined)
-14.3

###

Overview of reported cytotoxicity at 70.5 h across a group of molecules:
# EXPERIMENT SUMMARY: Human HepG2 cell viability assay in 384 well format
# Format: toxicity, cell-based
# Design: dose 125 nL, time 70.5 hour; concentration not given beside the values
# CONDITION DESCRIPTION: HepG2 cells, read-out: Inhibition
Numbers only here, please. The scale is %.

Here are 5 molecules together with their reported answers.
Answer with the recorded cytotoxicity at 70.5 h for the molecule listed here: CC(C)NC(=O)NC(C)c1nc(-c2ccccc2)cs1 (stereo unspecified)
-6.77

Answer with the recorded cytotoxicity at 70.5 h for the molecule listed here: CN(CC(O)C(F)(F)F)C(=O)Nc1cccc(C(F)F)c1 (stereo unspecified)
-7.43

Answer with the recorded cytotoxicity at 70.5 h for the molecule listed here: `CC(C)C(=O)NCc1ccccc1NS(=O)(=O)c1ccccc1`
-3.22

Answer with the recorded cytotoxicity at 70.5 h for the molecule listed here: `CC(=O)N1CCn2c(-c3ccccc3)cnc2C12CCNCC2`
-6.82

Answer with the recorded cytotoxicity at 70.5 h for the molecule listed here: CCOC(C)c1nc(CNc2cccc(Cl)c2OC)cs1 (stereo unspecified)
8.97

// switching to the query molecule
Answer with the recorded cytotoxicity at 70.5 h for the molecule listed here: `O=C(CN1CCc2cncnc2C1)NCCOc1ccccc1`
-5.53

###

# EXPERIMENT SUMMARY: Human HepG2 cell viability assay in 384 well format
# Type: toxicity, cell-based
# Set-up: dose 125 nL, time 70.5 hour; concentration not given beside the values
# CONDITION DESCRIPTION: HepG2 cells, read-out: Inhibition
Quick rule for you: cytotoxicity at 70.5 h at -10% or higher means T, lower means F.

Hi, just wondering whether CNc1cc(N2CCCC2CNCc2csc(C)n2)ncn1 (stereo unspecified) shows cytotoxicity at 70.5 h of -10% or higher.
T

###

# EXPERIMENT SUMMARY: Human HepG2 cell viability assay in 384 well format
# Assay type: toxicity, cell-based
# Design: dose 125 nL, time 70.5 hour; concentration not given beside the values
# CONDITION DESCRIPTION: HepG2 cells, read-out: Inhibition
RECORDED ENDPOINT: cytotoxicity at 70.5 h (%)
Numbers only here, please. The scale is %.

Here are 4 molecules together with their reported answers.
Answer with the recorded cytotoxicity at 70.5 h for the molecule listed here: O=C1CCC2(CCCN(C(=O)c3cccnc3)CC2)N1 (stereo not given)
-3.4

Answer with the recorded cytotoxicity at 70.5 h for the molecule listed here: `O=C1CN(C(=O)c2cc(-c3ccco3)nc3c(Cl)cccc23)CCN1`
9.84

Answer with the recorded cytotoxicity at 70.5 h for the molecule listed here: `NC(=O)C1=NC2=NS(=O)(=O)c3ccccc3N2N1Cc1ccc(Br)cc1`
-7.39

Answer with the recorded cytotoxicity at 70.5 h for the molecule listed here: `O=C(NC1CC1)[C@@H]1CN(Cc2ccc3c(c2)OCO3)C[C@H]2OCC[C@H]21`
-1.06

// switching to the query molecule
Answer with the recorded cytotoxicity at 70.5 h for the molecule listed here: CC(C)CNC(=O)C1CC(=O)N(c2n[nH]c3ccccc23)C1 (stereo not given)
-5.36

###

# EXPERIMENT SUMMARY: Human HepG2 cell viability assay in 384 well format
# Assay type: toxicity, cell-based
# Parameters: dose 125 nL, time 70.5 hour; concentration not given beside the values
# CONDITION DESCRIPTION: HepG2 cells, read-out: Inhibition
Overview of reported cytotoxicity at 70.5 h across a group of molecules:
Numbers only here, please. The scale is %.

Answer with the recorded cytotoxicity at 70.5 h for the molecule listed here: CC(NC(=O)c1sccc1C1CC1)c1ccc2c(c1)CC(=O)N2 (centres undefined)
-1.98

Answer with the recorded cytotoxicity at 70.5 h for the molecule listed here: CCOc1ccc(S(=O)(=O)NC(=O)CC2CCCO2)cc1 (centres undefined)
17.8

Answer with the recorded cytotoxicity at 70.5 h for the molecule listed here: `CC(C)(O)CCc1cccc(C(=O)N2Cc3cnn(CCO)c3C2)c1`
-17.1

Answer with the recorded cytotoxicity at 70.5 h for the molecule listed here: COCCC(=O)N1CCCC1c1nc(C)c2c(n1)N(C)C(=O)CC2 (centres undefined)
-3.97

Answer with the recorded cytotoxicity at 70.5 h for the molecule listed here: `CC(C)c1cc(NCc2csc(C(C)C)n2)nc(N)n1`
24.3

Answer with the recorded cytotoxicity at 70.5 h for the molecule listed here: `CCSc1ncc(CN2CCN(c3nc(C)cnc3C)CC2)cn1`
23.3

Answer with the recorded cytotoxicity at 70.5 h for the molecule listed here: `Cc1nn(C)c2c(N(C)Cc3ccco3)nc(C3CC3)nc12`
15.5

Answer with the recorded cytotoxicity at 70.5 h for the molecule listed here: N#CCCN(CC1CCCO1)C(=O)c1ccsc1 (centres undefined)
-4.29

Others:
Answer with the recorded cytotoxicity at 70.5 h for the molecule listed here: CC(C)(C)c1cc(NC(=O)CN2CCCC(Cn3cncn3)C2)on1 (centres undefined)
25.7

Answer with the recorded cytotoxicity at 70.5 h for the molecule listed here: `Cc1oc(-c2cc(F)cc(F)c2)nc1CN1C[C@@H](C)NC[C@@H]1C`
-11.7
